- Tested on: arterial blood pressure
- Method Notes: Influence of single intravenous injection on arterial blood pressure, heart rate and respiratory rate in anesthetized cats (Table 1, FIGS. 1-10)
- Assay type: in vivo
- Experimental Context: 5 mg/kg i.v.

{"Compound": "CCSC(=N)N [S-ethylisothiouronium metaphosphate]", "Target Of Assay": "arterial blood pressure", "RR (influence on respiratory rate)": "does not influence RR"}
{"Compound": "CC(C)SC(=N)N [S-isopropylisothiouronium isopropylphosphite]", "Target Of Assay": "arterial blood pressure", "RR (influence on respiratory rate)": "does not influence RR"}
{"Compound": "CC(C)SC(=N)N [S-isopropylisothiouronium metaphosphate]", "Target Of Assay": "arterial blood pressure", "RR (influence on respiratory rate)": "does not influence RR"}
